# Experimental target: GLP-1 receptor (GLP-1R) (human, UniProt P43220 24-463)
# Experimental details: cell-based or functional assay
Starred links: 1 amine or outer side, 2 acyl side, 3 side chain; linkers in the order of their positions; H or OH if unused. Non-standard residues stand in square brackets, D forms with d. Groups on a side chain read outwards from the residue. Primed or numbered codes have the meaning given here. No end group written: not given here. *: point of attachment. γGlu = O=C(O)[C@H](CCC(=O)[*:2])N[*:1]; Stearoyl = CCCCCCCCCCCCCCCCCC(=O)*; αMeF = C[C@](N)(Cc1ccccc1)C(=O)O; αMeK = C[C@](N)(CCCCN)C(=O)O; αMeS = C[C@](N)(CO)C(=O)O; PEG2′ = not defined here; Aib = CC(C)(N)C(=O)O
Observed property: cAMP Primary assay EC50 GLP-1R n2 (nM)

(P) H[Aib]EGS[αMeF]TSDV[αMeS]K([PEG2′-PEG2′-γGlu-Stearoyl])[αMeF]LEGEAA[αMeK]E[αMeF]IA[αMeF]VV[αMeK]GG-NH2 [SEQ ID NO 117]
(Q) H[Aib]EGS[αMeF]TSDV[αMeS]S[αMeF]LEGEAA[αMeK]E[αMeF]IA[αMeF]VV[αMeK]K([PEG2′-PEG2′-γGlu-Stearoyl])G-NH2 [SEQ ID NO 100]
Prompt: In the pair P and Q , the larger recorded cAMP Primary assay EC50 GLP-1R n2 belongs to which? Mark your answer with the label of the selected entry.
Completion: P

meta.source: patent US20200079833A1
